SUBJECT OF TEST: UniProtKB O60502
Sequence (O60502 whole entry): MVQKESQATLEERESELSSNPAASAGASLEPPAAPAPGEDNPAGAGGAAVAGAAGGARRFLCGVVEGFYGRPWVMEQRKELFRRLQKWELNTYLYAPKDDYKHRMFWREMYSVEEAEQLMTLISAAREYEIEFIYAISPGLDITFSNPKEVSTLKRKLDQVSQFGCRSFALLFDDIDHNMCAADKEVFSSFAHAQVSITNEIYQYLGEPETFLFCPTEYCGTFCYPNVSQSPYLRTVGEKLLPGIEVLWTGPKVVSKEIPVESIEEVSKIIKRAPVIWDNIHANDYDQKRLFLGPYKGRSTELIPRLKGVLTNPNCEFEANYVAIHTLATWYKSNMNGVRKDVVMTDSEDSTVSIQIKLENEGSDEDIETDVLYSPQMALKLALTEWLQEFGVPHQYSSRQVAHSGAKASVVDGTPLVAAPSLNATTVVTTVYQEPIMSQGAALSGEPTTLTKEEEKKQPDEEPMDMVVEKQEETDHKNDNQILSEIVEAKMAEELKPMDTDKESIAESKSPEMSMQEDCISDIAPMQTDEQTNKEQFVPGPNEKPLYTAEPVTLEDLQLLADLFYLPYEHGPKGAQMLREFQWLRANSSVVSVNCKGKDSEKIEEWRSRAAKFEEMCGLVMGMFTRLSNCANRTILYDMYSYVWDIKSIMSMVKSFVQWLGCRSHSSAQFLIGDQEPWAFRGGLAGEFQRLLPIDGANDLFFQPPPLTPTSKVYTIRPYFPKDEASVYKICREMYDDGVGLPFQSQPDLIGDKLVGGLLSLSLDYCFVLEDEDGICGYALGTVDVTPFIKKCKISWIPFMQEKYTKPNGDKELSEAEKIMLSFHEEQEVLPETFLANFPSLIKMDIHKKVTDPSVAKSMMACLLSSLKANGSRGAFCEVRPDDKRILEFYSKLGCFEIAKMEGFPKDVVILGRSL
ASSAY: Inhibition of human recombinant OGA pretreated for 20 mins followed by 4-Methylumbelliferyl N-acetyl-(3-D-glucosaminide substrate addition by fluorometer
Field: label. Allowed values: fulfilled (IC50 < 0.3 µM) or not fulfilled (IC50 >= 0.3 µM).

Take the molecule CC(=O)Nc1ncc(CN2CCCC(C(=O)Nc3ccccc3)C2)s1 (stereo unspecified) and say whether its IC50 is less than 0.3 µM.
not fulfilled

Threshold test, IC50 < 0.3 µM: CC(=O)Nc1ncc(CN2CCC(=CC(=O)NC3CCCCC3)CC2)s1
fulfilled

Take the molecule CC(=O)Nc1ncc(CN2CCC(C(=O)Nc3ccc(F)cc3)CC2)s1 and say whether its IC50 is less than 0.3 µM.
fulfilled

IC50 under 0.3 µM? Item: CC(=O)Nc1ncc(CN2CCN(CC(=O)Nc3ccccn3)CC2)s1
not fulfilled

Is IC50 strictly under 0.3 µM for the entry CC(=O)Nc1ncc(CN2CCCC(C(=O)NC3CCCCC3)C2)s1 (stereo unspecified) ?
fulfilled

====

ASSAY: Half life in ICR mouse plasma at 20 mg/kg, ip after 24 hrs by LC-MS/MS analysis
Format: ADME, organism-based
READOUT LABEL: half-life (h)
Answers are plain numbers, in h.

May I ask what half-life has been recorded for CC(=O)Nc1ncc(CN2CCN(CC(=O)Nc3ccc(Cl)cc3)CC2C)s1 (stereo unspecified) ?
1.53

====

SUBJECT OF TEST: Hexosaminidase D (Homo sapiens) (UniProt Q8WVB3)
Sequence (whole entry): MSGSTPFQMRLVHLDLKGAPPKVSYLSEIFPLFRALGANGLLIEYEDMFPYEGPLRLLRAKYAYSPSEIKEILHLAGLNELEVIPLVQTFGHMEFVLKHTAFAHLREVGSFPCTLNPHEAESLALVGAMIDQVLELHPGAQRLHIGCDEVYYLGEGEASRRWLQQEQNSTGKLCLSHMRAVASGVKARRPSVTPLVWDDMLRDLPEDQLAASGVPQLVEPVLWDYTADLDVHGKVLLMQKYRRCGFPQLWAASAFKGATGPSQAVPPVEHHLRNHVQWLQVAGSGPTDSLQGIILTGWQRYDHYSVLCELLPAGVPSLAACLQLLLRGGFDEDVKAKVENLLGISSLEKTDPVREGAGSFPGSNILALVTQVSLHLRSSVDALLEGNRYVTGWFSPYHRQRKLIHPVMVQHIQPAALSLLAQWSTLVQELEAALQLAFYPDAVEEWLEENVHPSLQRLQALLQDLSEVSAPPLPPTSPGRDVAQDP
ASSAY: Inhibition of human recombinant beta-hexosaminidase at 10 uM pretreated with compound followed by 4-nitrophenyl Nacetyl-beta-D-glucosaminide substrate addition by fluorometer
READOUT LABEL: inhibition (%)
Numbers only, in %.

{"COMPOUND": "COc1ccc(CNC(=O)C=C2CCN(Cc3cnc(NC(C)=O)s3)CC2)cc1", "READOUT LABEL": "inhibition", "MEASUREMENT UNIT": "%", "TEST RESULT": 89.6}
{"COMPOUND": "CC(=O)Nc1ncc(CN2CCN(CC(=O)NC3CCCCC3)CC2C)s1 (stereo not given)", "READOUT LABEL": "inhibition", "MEASUREMENT UNIT": "%", "TEST RESULT": 101}
{"COMPOUND": "CC(=O)Nc1ncc(CN2CCN(CC(=O)Nc3ccc(Cl)cc3)CC2C)s1 (stereo not given)", "READOUT LABEL": "inhibition", "MEASUREMENT UNIT": "%", "TEST RESULT": 92.4}

Please report inhibition for every entry that follows.
1. CC(=O)Nc1ncc(CN2CCN(CC(=O)Nc3ccc(N4CCN(C(C)=O)CC4)cc3)CC2C)s1 (stereo not given)
2. CC(=O)Nc1ncc(CN2CCCC(C(=O)Nc3ccc(F)cc3)C2)s1 (stereo not given)
3. CC(=O)Nc1ncc(CN2CCN(CC(=O)Nc3ccc(Cc4ccccc4)cc3)CC2C)s1 (stereo not given)
4. CCNC1=N[C@@H]2[C@@H](O)[C@H](O)[C@@H](CO)O[C@@H]2S1
5. CC(=O)N[C@H]1/C(=N\OC(=O)Nc2ccccc2)O[C@H](CO)[C@@H](O)[C@@H]1O
6. CC(=O)Nc1ncc(CN2CCN(CC(=O)Nc3ccc(Cc4ccccc4)cc3)CC2)s1
7. CC(=O)Nc1ncc(CN2CCN(CC(=O)Nc3ccccc3)CC2C)s1 (stereo not given)

73.5
92.5
106
91.6
7.6
101
103

Data provenance is ChEMBL document CHEMBL5113406.
